- Test system: Saccharomyces cerevisiae
- assayProtocol: protein stability index of tFT-peptide fusion (C-terminal peptide) (PSI (0-1 scale)); higher = more stable (slower turnover)
- conditionNotes: genetic background: das1 deletion; temperature: 30 C
measureName: protein stability index
Would you mind answering with just the numeric figure?

[[record]]
biosequence = "LSATIFLRGFLL [YIM2 C-terminal 12 aa]"
measurename = "protein stability index"
readoutvalue = 0.675

[[record]]
biosequence = "RIEMDLALTEPL [ORC6 C-terminal 12 aa]"
measurename = "protein stability index"
readoutvalue = 0.691


Request the reported protein stability index associated with FIHDVFFVYFRF [YDL094C C-terminal 12 aa]
0.176
